- Test system: SK-OV-3 ovarian
- assay summary: NCI tumour cell line growth inhibition, 48 h
readout label: TGI

>  <compound>
CC(C)(S)C(N)C(=O)O (configuration not stated)

>  <TGI>
> 5000 µM

$$$$

What TGI appears in the records for this compound with SK-OV-3 ovarian? "CC(=O)[O][Ga]([Br])[O]C(C)=O"
> 100 µM

What TGI appears in the records for this compound with SK-OV-3 ovarian? "CN1C(=O)CSC1=S"
> 100 µM

What TGI appears in the records for this compound with SK-OV-3 ovarian? "O=C1C=CC(=O)c2c1ccc1c3ccccc3n(-c3cccc([N+](=O)[O-])c3)c21"
> 10 µM

What TGI appears in the records for this compound with SK-OV-3 ovarian? Cc1cccc(C)c1NC(=O)C(=O)C(C(=O)c1ccccc1-c1ccccc1)C1OC(=O)c2ccccc21 (configuration not stated)
87.6 µM

What TGI appears in the records for this compound with SK-OV-3 ovarian? CCN1CCC(O)(/C=C/c2ccc(C)cc2)C(C(=O)/C=C/c2ccc(C)cc2)C1 (configuration not stated)
29.1 µM

What TGI appears in the records for this compound with SK-OV-3 ovarian? "N=C(N)c1ccc2nc(-c3cc(CC(=O)N[C@@H](CC(=O)O)C(=O)O)cc(-c4cc(S(N)(=O)=O)ccc4O)c3O)[nH]c2c1"
> 100 µM

What TGI appears in the records for this compound with SK-OV-3 ovarian? O=C1OCC2C1C1c3ccccc3C(O)c3ccccc3C21 (configuration not stated)
> 100 µM

What TGI appears in the records for this compound with SK-OV-3 ovarian? "Cc1cc(S(=O)(=O)O)c(NC(=O)C(=O)Cc2cc(=O)oc3cc(O)ccc23)cc1Cl"
> 100 µM

What TGI appears in the records for this compound with SK-OV-3 ovarian? CCN1C(=O)N(CC)C2C1NN=c1s/c(=C3\C(=O)N(CC(C)(C)C)c4ccccc43)c(=O)n12 (configuration not stated)
74.6 µM

What TGI appears in the records for this compound with SK-OV-3 ovarian? "O=C1NC(=O)C(c2cccc([N+](=O)[O-])c2)=C1Nc1cc(Cl)c(O)c(Cl)c1"
> 25 µM

What TGI appears in the records for this compound with SK-OV-3 ovarian? "COc1ccc2c(c1)C(=O)OCCC2"
> 100 µM

What TGI appears in the records for this compound with SK-OV-3 ovarian? "COc1ccc(CCNC(=O)c2ccc(NC3=C(Cl)C(=O)N(Cc4ccccc4)C3=O)cc2)cc1OC"
> 100 µM

What TGI appears in the records for this compound with SK-OV-3 ovarian? "O=C(NCCCl)N(O)C(=O)Nc1ccccc1"
> 100 µM
